Below, each entry is listed alongside its reported Efficacy.
Target: Glucocorticoid receptor (Homo sapiens)
Sequence (whole entry): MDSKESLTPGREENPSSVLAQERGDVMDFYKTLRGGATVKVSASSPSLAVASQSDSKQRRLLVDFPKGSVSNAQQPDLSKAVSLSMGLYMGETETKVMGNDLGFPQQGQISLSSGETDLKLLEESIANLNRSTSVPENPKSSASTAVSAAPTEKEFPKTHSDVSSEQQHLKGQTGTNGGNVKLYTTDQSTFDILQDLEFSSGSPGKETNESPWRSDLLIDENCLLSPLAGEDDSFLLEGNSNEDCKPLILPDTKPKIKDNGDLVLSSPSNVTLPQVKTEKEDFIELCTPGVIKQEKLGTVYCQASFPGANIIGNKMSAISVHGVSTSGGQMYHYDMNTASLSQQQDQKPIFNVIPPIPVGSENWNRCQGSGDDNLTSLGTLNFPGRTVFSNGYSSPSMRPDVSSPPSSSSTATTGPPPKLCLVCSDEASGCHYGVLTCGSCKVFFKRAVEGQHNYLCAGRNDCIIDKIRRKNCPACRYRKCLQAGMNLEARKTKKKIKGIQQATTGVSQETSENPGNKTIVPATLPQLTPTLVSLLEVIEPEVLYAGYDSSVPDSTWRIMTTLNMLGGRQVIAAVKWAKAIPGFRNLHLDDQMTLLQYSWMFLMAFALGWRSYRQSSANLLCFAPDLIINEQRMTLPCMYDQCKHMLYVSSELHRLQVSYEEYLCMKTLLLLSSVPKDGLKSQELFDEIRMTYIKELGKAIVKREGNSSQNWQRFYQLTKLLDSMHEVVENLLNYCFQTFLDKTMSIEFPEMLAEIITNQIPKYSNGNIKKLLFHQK
Experiment: Transrepression activity at glucocorticoid receptor in human A549 cells assessed as inhibition of PMA-stimulated AP1 response element by luciferase reporter gene assay relative to dexamethasone
Assay type: cell-based
Lab book: enter the figure in %, no units written.

Worked cases, answers included:
Efficacy reported for this compound CC(C)(CNS(=O)(=O)CC(F)(F)F)[C@@H](c1ccccc1)c1ccc2c(cnn2-c2ccc(F)cc2)c1 : 74

The compound CC(C)C[C@@H](c1ccc2c(cnn2-c2ccc(F)cc2)c1)C(C)(C)CNC(=O)NC(C)(C)C showed Efficacy equal to 100

Others:
# Efficacy (compound: CC(C)(CNC(=O)CC(F)(F)F)[C@@H](c1ccccc1)c1ccc2c(cnn2-c2ccc(F)cc2)c1 ) is 91

Briefly, Efficacy measured for CC(C)(C)C(=O)NCC(C)(C)[C@@H](c1ccccc1)c1ccc2c(cnn2-c2ccc(F)cc2)c1 : 100

====

Property: pEC50; scope: individual compounds
Molecular target: Glucocorticoid receptor (Homo sapiens, UniProt P04150)
Sequence (P04150 whole entry): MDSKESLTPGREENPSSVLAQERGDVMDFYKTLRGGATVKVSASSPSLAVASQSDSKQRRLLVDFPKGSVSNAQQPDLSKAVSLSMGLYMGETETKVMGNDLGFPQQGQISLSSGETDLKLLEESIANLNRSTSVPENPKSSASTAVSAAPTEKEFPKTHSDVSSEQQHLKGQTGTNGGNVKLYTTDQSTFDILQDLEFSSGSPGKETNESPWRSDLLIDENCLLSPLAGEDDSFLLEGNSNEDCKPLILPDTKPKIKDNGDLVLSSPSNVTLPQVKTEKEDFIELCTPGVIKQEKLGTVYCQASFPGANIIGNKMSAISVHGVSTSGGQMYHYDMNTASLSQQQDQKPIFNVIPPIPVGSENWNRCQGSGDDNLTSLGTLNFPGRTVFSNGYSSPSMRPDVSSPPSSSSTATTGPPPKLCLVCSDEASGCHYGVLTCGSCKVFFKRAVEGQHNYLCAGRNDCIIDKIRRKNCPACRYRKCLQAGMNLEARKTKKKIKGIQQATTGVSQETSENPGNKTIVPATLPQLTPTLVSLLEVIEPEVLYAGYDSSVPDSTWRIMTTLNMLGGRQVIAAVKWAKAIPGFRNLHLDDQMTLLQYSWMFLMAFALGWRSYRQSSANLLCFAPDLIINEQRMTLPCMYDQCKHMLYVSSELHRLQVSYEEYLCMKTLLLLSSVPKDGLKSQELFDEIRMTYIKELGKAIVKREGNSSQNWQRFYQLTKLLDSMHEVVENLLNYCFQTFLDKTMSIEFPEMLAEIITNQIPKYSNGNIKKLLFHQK
Test: Transrepression activity at glucocorticoid receptor in human A549 cells assessed as inhibition of PMA-stimulated AP1 response element by luciferase reporter gene assay
Type: cell-based
In simple prose, pEC50 is minus the logarithm base ten of a concentration in moles per litre.

Worked examples follow.
Note to self: pEC50 of CC(C)C[C@@H](c1ccc2c(cnn2-c2ccc(F)cc2)c1)C(C)(C)CNC(=O)NCC(F)(F)F with Glucocorticoid receptor (Homo sapiens, UniProt P04150) was 6.93

Fill in: Glucocorticoid receptor (Homo sapiens, UniProt P04150) pEC50 for CC(C)(CNC(=O)NCC(F)(F)F)[C@@H](c1ccccc1)c1ccc2c(cnn2-c2ccc(F)cc2)c1 = 6.60

Glucocorticoid receptor (Homo sapiens, UniProt P04150) assay, compound CC(C)C[C@@H](c1ccc2c(cnn2-c2ccc(F)cc2)c1)C(C)(C)CNC(=O)NC(C)(C)C , recorded pEC50 = 7.60

Please find the next compound below.
pEC50 for Glucocorticoid receptor (Homo sapiens, UniProt P04150) with input CC(CNC(=O)CC(F)(F)F)[C@@H](c1ccccc1)c1ccc2c(cnn2-c2ccc(F)cc2)c1 (single isomer, unassigned) equals 7.28

====

biological target: UniProtKB P04150; assay: Transactivation activity at glucocorticoid receptor ligand binding domain (unknown origin) expressed in human Hela cells co-expressing GAL4 DNA binding domain assessed as NP-1-stimulated GRE activation by luciferase reporter gene assay; assay type: cell-based
Examples of compounds with documented log10 of EC50 follow.
The common logarithm of EC50 in µM is what is listed.

Guide cases for log10 of EC50, answers given:
Item: CCS(=O)(=O)NCC(C)(C)[C@@H](c1ccccc1)c1ccc2c(cnn2-c2ccc(F)cc2)c1 | log10 of EC50: -0.67

CC(C)(C)C(=O)NCC(C)(C)[C@@H](c1ccccc1)c1ccc2c(cnn2-c2ccc(F)cc2)c1 yielded log10 of EC50 of -0.40

Lookup result for CC(C)C[C@@H](c1ccc2c(cnn2-c2ccc(F)cc2)c1)C(C)(C)CNC(=O)NCC(F)(F)F ; measured log10 of EC50: -0.30

The recorded log10 of EC50 for CC(C)(CNS(=O)(=O)CC(F)(F)F)[C@@H](c1ccccc1)c1ccc2c(cnn2-c2ccc(F)cc2)c1 is -0.69

log10 of EC50 reported for this compound CC(CNS(=O)(=O)CC(F)(F)F)[C@@H](c1ccccc1)c1ccc2c(cnn2-c2ccc(F)cc2)c1 (some centres not stated) : -1.59

Others:
Record CC(C)(C)NC(=O)NCC(C)(C)[C@@H](c1ccccc1)c1ccc2c(cnn2-c2ccc(F)cc2)c1 . Reported log10 of EC50: -0.37

Kindly note the recorded log10 of EC50 for CC(C)C[C@@H](c1ccc2c(cnn2-c2ccc(F)cc2)c1)C(C)(C)CNC(=O)NC(C)(C)C , which is -0.90

compound CCS(=O)(=O)NCC(C)[C@@H](c1ccccc1)c1ccc2c(cnn2-c2ccc(F)cc2)c1 (some centres not stated) , log10 of EC50 observed: -1.89

Lookup result for CC(C)(CNS(=O)(=O)C1CC1)[C@@H](c1ccccc1)c1ccc2c(cnn2-c2ccc(F)cc2)c1 ; measured log10 of EC50: -0.58

log10 of EC50 for CC(C)C[C@@H](c1ccc2c(cnn2-c2ccc(F)cc2)c1)C(C)(C)CNC(=O)CC(F)(F)F is -0.58

====

molecular target: Androgen receptor (Homo sapiens, UniProt P10275); assay: Binding affinity to androgen receptor (unknown origin) by fluorescence assay
Sequence (P10275 whole entry): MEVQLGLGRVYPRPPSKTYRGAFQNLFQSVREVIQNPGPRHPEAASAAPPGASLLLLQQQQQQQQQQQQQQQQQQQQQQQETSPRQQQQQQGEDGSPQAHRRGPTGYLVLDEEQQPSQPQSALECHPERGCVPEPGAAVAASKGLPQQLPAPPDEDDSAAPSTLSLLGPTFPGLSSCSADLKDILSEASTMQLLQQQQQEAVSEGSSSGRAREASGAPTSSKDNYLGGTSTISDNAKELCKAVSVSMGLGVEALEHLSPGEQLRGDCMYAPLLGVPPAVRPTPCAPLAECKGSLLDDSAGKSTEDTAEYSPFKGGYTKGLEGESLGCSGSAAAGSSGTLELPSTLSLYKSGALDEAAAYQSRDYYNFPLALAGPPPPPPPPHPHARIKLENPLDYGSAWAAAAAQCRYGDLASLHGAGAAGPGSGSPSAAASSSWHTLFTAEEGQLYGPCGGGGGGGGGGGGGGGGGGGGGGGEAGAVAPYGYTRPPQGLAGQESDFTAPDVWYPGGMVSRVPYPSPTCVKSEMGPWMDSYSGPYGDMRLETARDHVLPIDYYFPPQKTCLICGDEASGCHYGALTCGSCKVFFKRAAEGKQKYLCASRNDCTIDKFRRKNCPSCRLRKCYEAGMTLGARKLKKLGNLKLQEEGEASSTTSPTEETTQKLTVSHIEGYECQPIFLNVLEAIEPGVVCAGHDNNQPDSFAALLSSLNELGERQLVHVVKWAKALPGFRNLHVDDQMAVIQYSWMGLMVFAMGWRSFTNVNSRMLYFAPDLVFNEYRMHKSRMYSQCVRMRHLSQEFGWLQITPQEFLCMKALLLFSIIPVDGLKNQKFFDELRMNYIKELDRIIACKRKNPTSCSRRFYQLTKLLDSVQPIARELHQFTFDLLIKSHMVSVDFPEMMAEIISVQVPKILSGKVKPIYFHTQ
Metric: Ki

Ki for CC(C)(CNS(=O)(=O)CC(F)(F)F)[C@@H](c1ccccc1)c1ccc2c(cnn2-c2ccc(F)cc2)c1 is > 5 µM

====

Listed here are compounds together with their documented Efficacy.
target: Glucocorticoid receptor (Homo sapiens) (UniProt P04150); assay: Transrepression activity at glucocorticoid receptor in human A549 cells assessed as inhibition of PMA-stimulated AP1 response element by luciferase reporter gene assay relative to dexamethasone; format: cell-based

For reference, reported Efficacy for CC(C)(C)CC(=O)NCC(C)(C)[C@@H](c1ccccc1)c1ccc2c(cnn2-c2ccc(F)cc2)c1 stands at 62%

Others:
Recorded Efficacy (compound CC(C)C[C@@H](c1ccc2c(cnn2-c2ccc(F)cc2)c1)C(C)(C)CNC(=O)CC(F)(F)F ): 101%

The measured Efficacy associated with CC(C)(CNC(=O)Cc1ccccc1)[C@@H](c1ccccc1)c1ccc2c(cnn2-c2ccc(F)cc2)c1 reads 33%

Form: compound = CCCS(=O)(=O)NCC(C)(C)[C@@H](c1ccccc1)c1ccc2c(cnn2-c2ccc(F)cc2)c1 ; Efficacy = 66%

====

target: Mineralocorticoid receptor (Homo sapiens, UniProt P08235); test: Agonist activity at mineralocorticoid receptor in human A549 cells by fluorescence assay
Sequence (P08235 whole entry): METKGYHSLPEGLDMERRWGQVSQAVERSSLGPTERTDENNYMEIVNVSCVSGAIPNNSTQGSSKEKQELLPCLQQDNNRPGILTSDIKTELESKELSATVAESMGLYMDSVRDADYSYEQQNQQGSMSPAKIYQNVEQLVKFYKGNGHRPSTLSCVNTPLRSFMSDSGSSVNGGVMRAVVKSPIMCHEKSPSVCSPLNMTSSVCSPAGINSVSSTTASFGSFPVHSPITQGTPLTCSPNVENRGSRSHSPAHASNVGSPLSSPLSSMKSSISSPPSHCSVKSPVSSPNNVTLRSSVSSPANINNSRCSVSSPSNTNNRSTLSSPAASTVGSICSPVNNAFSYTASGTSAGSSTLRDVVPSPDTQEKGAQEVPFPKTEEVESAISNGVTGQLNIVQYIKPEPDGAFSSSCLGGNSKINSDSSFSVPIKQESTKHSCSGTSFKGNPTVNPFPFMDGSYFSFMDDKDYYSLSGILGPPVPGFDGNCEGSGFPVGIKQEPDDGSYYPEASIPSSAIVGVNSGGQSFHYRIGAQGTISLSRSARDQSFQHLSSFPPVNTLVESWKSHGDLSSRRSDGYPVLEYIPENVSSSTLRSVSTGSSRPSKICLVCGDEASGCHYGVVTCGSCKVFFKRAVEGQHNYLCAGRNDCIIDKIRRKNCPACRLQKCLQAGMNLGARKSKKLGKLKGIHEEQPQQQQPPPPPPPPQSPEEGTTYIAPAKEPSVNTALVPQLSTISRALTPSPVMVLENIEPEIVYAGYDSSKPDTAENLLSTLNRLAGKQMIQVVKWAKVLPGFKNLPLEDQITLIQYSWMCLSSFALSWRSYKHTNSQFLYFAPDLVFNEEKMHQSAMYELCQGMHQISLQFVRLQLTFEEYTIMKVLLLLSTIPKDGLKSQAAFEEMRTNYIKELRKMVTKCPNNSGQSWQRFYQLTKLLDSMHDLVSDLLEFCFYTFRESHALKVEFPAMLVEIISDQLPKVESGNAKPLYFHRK
pIC50: −log10 of the molar value.
Metric: pIC50

Noted for CC(C)(CNS(=O)(=O)CC(F)(F)F)[C@@H](c1ccccc1)c1ccc2c(cnn2-c2ccc(F)cc2)c1 : its pIC50 reads < 5.30

***
Just so you know, measured pIC50 for CC(C)(C)NC(=O)NCC(C)(C)[C@@H](c1ccccc1)c1ccc2c(cnn2-c2ccc(F)cc2)c1 came out at < 5.30

What the record says about CC(C)(CNC(=O)CC(F)(F)F)[C@@H](c1ccccc1)c1ccc2c(cnn2-c2ccc(F)cc2)c1 : pIC50 is < 5.30
